In this section, each of the compounds is paired with its reported log10 MIC.
# Test system: Staphylococcus aureus
# Measurement Description: Antibacterial activity against Staphylococcus aureus ATCC 12598 after 2 days by broth dilution method
# Type: functional
# Condition Summary: ATCC 12598, 48 h
Transform log10 | Measure MIC | Unit µg/mL

# return log10 MIC for `CCCC/C=C/C=O` , test system: Staphylococcus aureus
2.60

Provide log10 MIC, tested on Staphylococcus aureus, for `CCCCCCCC/C=C/C=O` .
1.10

Report log10 MIC under test system Staphylococcus aureus for CCCCCCC/C=C/C=O [TRANS-2-DECENAL] .
1.40

Give measured log10 MIC for CCCCCCCC(=O)O [OCTANOIC ACID] (Staphylococcus aureus).
2.60

System Staphylococcus aureus. Read-out log10 MIC. Item CCCCCC/C=C/C=O [2-NONENAL] . Report value.
1.70

Output reported log10 MIC of the compound `CCCCC/C=C/C=C/C=O` on Staphylococcus aureus.
1.70

Using Staphylococcus aureus as the test system, report measured log10 MIC of `CCCCC/C=C/C=O` .
2.30
